System: Nucleic Acid
assay-overview: Binding affinity to poly A-poly U assessed as thermal denaturation-associated change in melting temperature at pH 7 by tangent method
Format: nucleic-acid assay
observation-type: ΔTm (°C)

Please review the entries below; each comes with its answer.
chem-smiles: CC1=C/C(=C/c2oc3ccccc3[n+]2C)N=C2Sc3cc(Cl)ccc3N12.[O-][Cl+3]([O-])([O-])[O-]
tested-on: Nucleic Acid
unit-abbreviation: °C
readout-value: 0

chem-smiles: CCOc1ccc2c(c1)SC1=N/C(=C\c3oc4ccccc4[n+]3C)C=C(C)N12.[O-][Cl+3]([O-])([O-])[O-]
tested-on: Nucleic Acid
unit-abbreviation: °C
readout-value: 0

chem-smiles: CC1=C/C(=C/c2sc3ccccc3[n+]2C)N=C2C=CC=CN12.[O-][Cl+3]([O-])([O-])[O-]
tested-on: Nucleic Acid
unit-abbreviation: °C
readout-value: 10.4

[1] COc1ccc2c(c1)SC1=N/C(=C\c3oc4ccccc4[n+]3C)C=C(C)N12.[O-][Cl+3]([O-])([O-])[O-]
[2] CC1=C/C(=C/c2oc3ccccc3[n+]2C)C(C#N)=C2Sc3ccccc3N12.[O-][Cl+3]([O-])([O-])[O-]
Given 1 and given 2 , which shows the smaller recorded ΔTm? Lab log: write the label of the selected item as the result.
1
(1: 0 °C, 2: 19.5 °C)

---

This listing pairs compounds with measured log Ks.
Test system: Nucleic Acid
assay-overview: Binding affinity to poly U single stranded RNA at pH 7 by fluorometric titration method
Format: nucleic-acid assay

Please review the entries below; each comes with its answer.
chem-smiles: COc1ccc2c(c1)SC1=N/C(=C\c3oc4ccccc4[n+]3C)C=C(C)N12.[O-][Cl+3]([O-])([O-])[O-]
readout-value: < 4
--
chem-smiles: CC1=C/C(=C/c2oc3ccccc3[n+]2C)N=C2Sc3cc(Cl)ccc3N12.[O-][Cl+3]([O-])([O-])[O-]
readout-value: < 4

Answer with the recorded log Ks of CCOc1ccc2c(c1)SC1=N/C(=C\c3oc4ccccc4[n+]3C)C=C(C)N12.[O-][Cl+3]([O-])([O-])[O-] only.
< 4

---

Test system: Calf thymus DNA
assay-overview: Binding affinity to calf thymus double helix DNA assessed as thermal denaturation-associated change in melting temperature at pH 7 by tangent method
Type: nucleic-acid assay
conditions-used: Bos taurus
observation-type: ΔTm (°C)

Please review the entries below; each comes with its answer.
chem-smiles: COc1ccc2c(c1)SC1=N/C(=C\c3sc4ccccc4[n+]3C)C=C(C)N12.[O-][Cl+3]([O-])([O-])[O-]
tested-on: Calf thymus DNA
ΔTm [°C]: 3
//
chem-smiles: CCOc1ccc2c(c1)SC1=N/C(=C\c3oc4ccccc4[n+]3C)C=C(C)N12.[O-][Cl+3]([O-])([O-])[O-]
tested-on: Calf thymus DNA
ΔTm [°C]: 4

[I] CC1=C/C(=C/c2oc3ccccc3[n+]2C)C(C#N)=C2Sc3ccccc3N12.[O-][Cl+3]([O-])([O-])[O-]
[II] CC1=C/C(=C/c2oc3ccccc3[n+]2C)N=C2Sc3cc(OCCO)ccc3N12.[O-][Cl+3]([O-])([O-])[O-]
# argmax over ΔTm for candidates I and II Lab log: write the label of the selected item as the result.
I
(I: 4.1 °C, II: 0.8 °C)

---

Test system: Nucleic Acid
assay-overview: Binding affinity to poly A-poly U at pH 7 by fluorometric titration method
Assay type: nucleic-acid assay
observation-type: log Ks

[1] COc1ccc2c(c1)SC1=N/C(=C\c3sc4ccccc4[n+]3C)C=C(C)N12.[O-][Cl+3]([O-])([O-])[O-]
[2] CC1=C/C(=C/c2oc3ccccc3[n+]2C)C(C#N)=C2Sc3ccccc3N12.[O-][Cl+3]([O-])([O-])[O-]
# argmax over log Ks for candidates 1 and 2 Lab log: write the label of the selected item as the result.
2
(2: 6.8, 1: 4.2)

---

Test system: HuT78
assay-overview: Cytotoxicity against human HUT78 cells after 72 hrs by MTT assay
Format: functional, cell-based
conditions-used: HuT78, 72 h
This listing pairs compounds with measured pIC50.
Hey, just a heads up that pIC50 is the negative log base 10 of the concentration in molar.

Please review the entries below; each comes with its answer.
chem-smiles: COc1ccc2c(c1)SC1=N/C(=C\c3oc4ccccc4[n+]3C)C=C(C)N12.[O-][Cl+3]([O-])([O-])[O-]
observation-type: pIC50
readout-value: 7.00
//
chem-smiles: CC1=C/C(=C/c2sc3ccccc3[n+]2C)N=C2C=CC=CN12.[O-][Cl+3]([O-])([O-])[O-]
observation-type: pIC50
readout-value: 6.70

Answer with the recorded pIC50 of COc1ccc2c(c1)SC1=N/C(=C\c3sc4ccccc4[n+]3C)C=C(C)N12.[O-][Cl+3]([O-])([O-])[O-] only.
8.00

Answer with the recorded pIC50 of CCOc1ccc2c(c1)SC1=N/C(=C\c3oc4ccccc4[n+]3C)C=C(C)N12.[O-][Cl+3]([O-])([O-])[O-] only.
7.30

Answer with the recorded pIC50 of CC1=C/C(=C/c2oc3ccccc3[n+]2C)N=C2Sc3cc(Cl)ccc3N12.[O-][Cl+3]([O-])([O-])[O-] only.
7.22

Answer with the recorded pIC50 of CC1=C/C(=C/c2oc3ccccc3[n+]2C)N=C2Sc3cc(OCCO)ccc3N12.[O-][Cl+3]([O-])([O-])[O-] only.
6.15

Answer with the recorded pIC50 of CC1=C/C(=C/c2sc3ccccc3[n+]2C)N=C2Sc3cc(OCCO)ccc3N12.[O-][Cl+3]([O-])([O-])[O-] only.
6.30

Answer with the recorded pIC50 of CC1=C/C(=C/c2oc3ccccc3[n+]2C)C(C#N)=C2Sc3ccccc3N12.[O-][Cl+3]([O-])([O-])[O-] only.
6.30

---

Tested on: Nucleic Acid
assay-overview: Binding affinity to double stranded RNA at pH 7 by fluorometric titration method
Type: nucleic-acid assay
The source made the active and inactive calls. The calls are words filed in the database; no cut-off is given here.
Bench note: report the call from active, inactive

Take a look at these entries with their results.
chem-smiles: CC1=C/C(=C/c2sc3ccccc3[n+]2C)N=C2C=CC=CN12.[O-][Cl+3]([O-])([O-])[O-]
class-label: inactive

chem-smiles: CC1=C/C(=C/c2oc3ccccc3[n+]2C)N=C2Sc3cc(Cl)ccc3N12.[O-][Cl+3]([O-])([O-])[O-]
class-label: active

chem-smiles: COc1ccc2c(c1)SC1=N/C(=C\c3sc4ccccc4[n+]3C)C=C(C)N12.[O-][Cl+3]([O-])([O-])[O-]
class-label: active

Now let's try a different one.
What was the test verdict on CC1=C/C(=C/c2sc3ccccc3[n+]2C)N=C2Sc3cc(OCCO)ccc3N12.[O-][Cl+3]([O-])([O-])[O-] ?
active

---

Test system: Nucleic Acid
assay-overview: Binding affinity to poly A single stranded RNA at pH 7 by fluorometric titration method
Assay type: nucleic-acid assay
Activity calls are given as the source filed them. The rule behind the calls is not given here.
Bench note: report the call from 1 (active), 0 (inactive)

Take a look at these entries with their results.
chem-smiles: COc1ccc2c(c1)SC1=N/C(=C\c3oc4ccccc4[n+]3C)C=C(C)N12.[O-][Cl+3]([O-])([O-])[O-]
tested-on: Nucleic Acid
class-label: 1
//
chem-smiles: COc1ccc2c(c1)SC1=N/C(=C\c3sc4ccccc4[n+]3C)C=C(C)N12.[O-][Cl+3]([O-])([O-])[O-]
tested-on: Nucleic Acid
class-label: 1
//
chem-smiles: CC1=C/C(=C/c2sc3ccccc3[n+]2C)N=C2C=CC=CN12.[O-][Cl+3]([O-])([O-])[O-]
tested-on: Nucleic Acid
class-label: 0
//
chem-smiles: CC1=C/C(=C/c2oc3ccccc3[n+]2C)N=C2Sc3cc(OCCO)ccc3N12.[O-][Cl+3]([O-])([O-])[O-]
tested-on: Nucleic Acid
class-label: 1
//
chem-smiles: CC1=C/C(=C/c2oc3ccccc3[n+]2C)N=C2Sc3cc(Cl)ccc3N12.[O-][Cl+3]([O-])([O-])[O-]
tested-on: Nucleic Acid
class-label: 1
//
chem-smiles: CC1=C/C(=C/c2sc3ccccc3[n+]2C)N=C2Sc3cc(OCCO)ccc3N12.[O-][Cl+3]([O-])([O-])[O-]
tested-on: Nucleic Acid
class-label: 1

Now let's try a different one.
What was the test verdict on CCOc1ccc2c(c1)SC1=N/C(=C\c3oc4ccccc4[n+]3C)C=C(C)N12.[O-][Cl+3]([O-])([O-])[O-] ?
1

---

This listing pairs compounds with measured pIC50.
Test system: NCI-H358
assay-overview: Cytotoxicity against human NCI-H358 cells after 72 hrs by MTT assay
Format: functional, cell-based
conditions-used: NCI-H358, 72 h
Hey, just a heads up that pIC50 is the negative log base 10 of the concentration in molar.

chem-smiles: CC1=C/C(=C/c2oc3ccccc3[n+]2C)N=C2Sc3cc(OCCO)ccc3N12.[O-][Cl+3]([O-])([O-])[O-]
tested-on: NCI-H358
pIC50: 5.05

Next:
State recorded pIC50 with NCI-H358, entry CC1=C/C(=C/c2sc3ccccc3[n+]2C)N=C2C=CC=CN12.[O-][Cl+3]([O-])([O-])[O-] , no comment.
5.70
